Molecular target: murine AhR (Mus musculus, UniProt P30561)
Sequence (P30561 10-805): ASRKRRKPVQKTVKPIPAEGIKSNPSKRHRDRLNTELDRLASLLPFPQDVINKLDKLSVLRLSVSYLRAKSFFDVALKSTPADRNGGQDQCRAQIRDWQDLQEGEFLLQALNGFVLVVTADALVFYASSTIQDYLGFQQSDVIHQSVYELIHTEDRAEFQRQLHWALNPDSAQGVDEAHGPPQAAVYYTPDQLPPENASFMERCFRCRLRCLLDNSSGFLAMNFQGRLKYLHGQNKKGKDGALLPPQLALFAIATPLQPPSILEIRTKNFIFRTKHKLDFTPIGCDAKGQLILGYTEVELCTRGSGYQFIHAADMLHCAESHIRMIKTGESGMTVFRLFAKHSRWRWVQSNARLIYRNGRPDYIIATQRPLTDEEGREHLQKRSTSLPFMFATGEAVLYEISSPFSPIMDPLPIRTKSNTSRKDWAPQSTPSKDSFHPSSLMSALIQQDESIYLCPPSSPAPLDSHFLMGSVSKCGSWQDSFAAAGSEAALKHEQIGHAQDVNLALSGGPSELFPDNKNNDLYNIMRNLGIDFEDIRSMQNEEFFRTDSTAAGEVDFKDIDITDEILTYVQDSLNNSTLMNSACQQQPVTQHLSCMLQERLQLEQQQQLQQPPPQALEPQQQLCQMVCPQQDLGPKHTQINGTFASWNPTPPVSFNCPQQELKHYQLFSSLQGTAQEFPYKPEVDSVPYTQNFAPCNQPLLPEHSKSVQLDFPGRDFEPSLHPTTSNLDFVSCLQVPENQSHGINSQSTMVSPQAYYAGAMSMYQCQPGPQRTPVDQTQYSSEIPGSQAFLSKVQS
Test: Competitive radio-ligand ([3H]-TCDD) AhR binding assay, cytosols from Hepa1c1c7 cells
Settings: Table 1 summary class
Parameter: Affinity (IC50)

O=C(O)C(O)Cc1c[nH]c2ccccc12 (stereo not drawn) [ILA, indole-3-lactate]; no
Cc1c[nH]c2ccccc12; low
O=C(O)/C=C/c1c[nH]c2ccccc12 [IAC, indole-3-acrylate]; very low
OCCc1c[nH]c2ccccc12; very low
O=Cc1c[nH]c2ccccc12; no

q: Quick check: Affinity (IC50) of NC(=O)Cc1c[nH]c2ccccc12 [IAD, indole-3-acetamide] ?
a: low

q: Would you mind telling me what Affinity (IC50) value was observed for NCCc1c[nH]c2ccccc12 ?
a: no

q: Affinity (IC50) for c1ccc2[nH]ccc2c1 ?
a: very low

q: Which Affinity (IC50) value is on record for O=C(O)C(=O)Cc1c[nH]c2ccccc12 [IPY, indole-3-pyruvate] ?
a: low
